B1: tRNA (parent)
chain: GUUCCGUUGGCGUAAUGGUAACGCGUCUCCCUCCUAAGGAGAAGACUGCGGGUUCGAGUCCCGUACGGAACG

# Variants of: B1
# method: yeast fitness relative to wild type (ratio to wild type); higher = fitter; tRNA-Arg(CCU), competitive growth, 37 C, YPD
Variants at the floor of the assay were thinned out.
Assign class by yeast fitness: not lower than 0.7 means Satisfied; lower than 0.7 means Not satisfied.

# count of solved cases: 5
A20G A45U G63C	Not satisfied
G51A C60U C61U A65G A69C	Not satisfied
C29G U32A U47C C62A	Not satisfied
U8C C24U A65C	Not satisfied
A37G A42C A70C	Satisfied

Dear colleague, could you confirm whether C5G A15C G58A G67C has yeast fitness at or above 0.7?
Not satisfied

Dear colleague, could you confirm whether A43C A70G has yeast fitness at or above 0.7?
Satisfied

Dear colleague, could you confirm whether C11U G18A A36U G48C C49U has yeast fitness at or above 0.7?
Not satisfied

Dear colleague, could you confirm whether A14G C55U A65G has yeast fitness at or above 0.7?
Not satisfied

Dear colleague, could you confirm whether C5A G39A U47A G68C has yeast fitness at or above 0.7?
Not satisfied

Dear colleague, could you confirm whether A65G A69C has yeast fitness at or above 0.7?
Satisfied

Dear colleague, could you confirm whether A15U A43U C62U has yeast fitness at or above 0.7?
Not satisfied
